This listing pairs binders with measured ELISA signal.
- Tested Target: His-tagged mouse CD38 (ACRO Biosystems CD8-M5223) (mouse) (UniProt P56528)
- Assay Text: ELISA, 1 ug/ml scFv-Fc, coated His-tagged CD38

{"Binder": "40769p2.2.G3 scFv-Fc (scFv, part only; not given: Linker, domain order, Fc, V domains shown, not shown: another chain or arm of the molecule; a dimerising Fc or GST; small tags and cut ends) VH: EVQLLESGGGLVQPGGSLRLSCTASGITFSRFNMFWVRQAPGKGLEFVASIRDDGSWTYYADSVKGQFTISRDNSKNTLYLQMNSLRAEDTAVYYCAKDYSSKDFIYHYVMDVWGQGTTVTVSS VL: QSVLTQPPSASGTPGQRVTISCSGRNSNIGNNVVNWYQQLPGTAPKLLIYRNQERPSGVPDRFSGSKSGTSASLAISGLQSEDEADYYCASWDDSLNAWVFGRGTKLTVL", "ELISA signal": 0.044}
{"Binder": "40769p2.1.E1 scFv-Fc (scFv, part only; not given: Linker, domain order, Fc, V domains shown, not shown: another chain or arm of the molecule; a dimerising Fc or GST; small tags and cut ends) VH: EVQLLESGGGLIQPGGSLRLSCTASGFDFSSYGMHWVRQAPGKGLEWVAIISDSGGTTYYGDSVKGRFTISRDNSKSTLYLQMNSLRAEDTALYYCASYIMDVWGQGTTVTVSS VL: QSVLTQPPSASGTPEQRVTISCSGSNSNVGDNAVYWYQQLPGTAPKLLFYGTNRRPSGVPDRFSGSKSGTSASLAISGLQSEDEADYYCAAWDDSLNAWVFGGGTKLTVL", "ELISA signal": 1.53}
{"Binder": "40769p2.2.D3 scFv-Fc (scFv, V domains shown) VH: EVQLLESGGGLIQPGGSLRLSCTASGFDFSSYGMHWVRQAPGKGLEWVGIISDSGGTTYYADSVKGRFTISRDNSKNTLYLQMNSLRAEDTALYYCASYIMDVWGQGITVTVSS VL: QSVLTQPPSASGTPGQRVTISCSGSNSNVGVNSVYWYQQLPGTAPKLLIYGSGRRPSGVPDRFSVSKSGTSASLAISGLQSEDEADYYCAAWDGGLNAWVFGGGTKLTVL", "ELISA signal": 0.044}
